Provenance of the data: ChEMBL document CHEMBL3112583

Assay: Cytotoxicity against human HEK293 cells assessed as cell survival after 72 hrs by MTT assay
Recorded Metric: IC50 at 72 h (µM)
Numeric answer only, unit µM assumed.

See these solved cases before continuing.
>  <Smiles Notation>
O=C[C@H](Cc1ccc(O)cc1)NC(=O)N(Cc1ccccc1)N1CCCCC1

>  <IC50 at 72 h / µM>
52.4

$$$$
>  <Smiles Notation>
CN(C)N(Cc1ccccc1)C(=O)N[C@H](C=O)Cc1ccccc1

>  <IC50 at 72 h / µM>
56.3

$$$$
>  <Smiles Notation>
O=C[C@H](Cc1ccccc1)NC(=O)N(Cc1ccccc1)N1CCCCC1

>  <IC50 at 72 h / µM>
37.6

$$$$
>  <Smiles Notation>
O=C[C@H](Cc1ccccc1)NC(=O)N(Cc1cccc(O)c1)N1CCCCC1

>  <IC50 at 72 h / µM>
35.3

$$$$

Lab note: next compound to report on.
Just so you know, measured IC50 at 72 h for "COc1cccc(CN(C(=O)N[C@H](C=O)Cc2ccccc2)N2CCCCC2)c1" came out at 42.6

====

In this section, each of the compounds is paired with its reported IC50 at 72 h.
Assay: Cytotoxicity against mouse NIH/3T3 cells assessed as cell survival after 72 hrs by MTT assay
Numeric answer only, unit µM assumed.

Just so you know, measured IC50 at 72 h for "O=C[C@H](Cc1ccccc1)NC(=O)N(Cc1cccc(O)c1)N1CCCCC1" came out at 42.1

Just so you know, measured IC50 at 72 h for "O=C[C@H](Cc1ccc(O)cc1)NC(=O)N(Cc1ccccc1)N1CCCCC1" came out at 58.6

Just so you know, measured IC50 at 72 h for "O=C[C@H](Cc1ccccc1)NC(=O)N(Cc1ccccc1)N1CCCCC1" came out at 42.6

Just so you know, measured IC50 at 72 h for "COc1cccc(CN(C(=O)N[C@H](C=O)Cc2ccccc2)N2CCCCC2)c1" came out at 39.4

Just so you know, measured IC50 at 72 h for "CN(C)N(Cc1ccccc1)C(=O)N[C@H](C=O)Cc1ccccc1" came out at 68.8

====

Target: Protease (Human immunodeficiency virus 1)
Sequence (Q9YQ12 whole entry): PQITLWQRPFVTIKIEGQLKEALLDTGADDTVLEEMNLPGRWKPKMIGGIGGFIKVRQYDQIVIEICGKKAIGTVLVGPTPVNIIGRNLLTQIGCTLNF
Test: Inhibition of HIV-1 recombinant protease using DABCYL-GABA-Ser-Asn-Tyr-Pro-Ile-Val-Gln-EDANS as substrate incubated for 30 mins prior to substrate addition by Lineweaver-Burk plot analysis
Recorded Metric: pKi
pKi (log units): -log10 of the concentration in mol/L.

See these solved cases before continuing.
>  <Smiles Notation>
O=C[C@H](Cc1ccccc1)N(Cc1ccccc1)C(=O)N(Cc1ccccc1)N1CCCCC1

>  <pKi>
3.33

$$$$
>  <Smiles Notation>
CN(C)N(Cc1ccccc1)C(=O)N[C@H](C=O)Cc1ccccc1

>  <pKi>
3.28

$$$$
>  <Smiles Notation>
COc1cccc(CN(C(=O)N[C@H](C=O)Cc2ccccc2)N2CCCCC2)c1

>  <pKi>
3.49

$$$$
>  <Smiles Notation>
O=C[C@H](Cc1ccccc1)NC(=O)N(Cc1cccc(O)c1)N1CCCCC1

>  <pKi>
3.57

$$$$
>  <Smiles Notation>
O=C[C@H](Cc1ccccc1)NC(=O)N(Cc1ccccc1)N1CCOCC1

>  <pKi>
3.50

$$$$

Just so you know, measured pKi for "O=C[C@H](Cc1ccc(O)cc1)NC(=O)N(Cc1ccccc1)N1CCCCC1" came out at 3.40

Just so you know, measured pKi for "O=C[C@H](Cc1ccccc1)NC(=O)N(Cc1ccccc1)N1CCCCC1" came out at 3.76
